target: ALDH3A1 (Homo sapiens, UniProt P30838); construct: purchased R & D Systems, Inc, Minneapolis, MN, USA; assay: ALDH isoform-specific enzyme assay, ALDH3A1 (NADH absorbance); type: biochemical; conditions: as rounded in text; read-out: IC50 ALDH3A1
quantity.kind: pIC50
One number for each entry, as −log10 of the molar value.

// query pIC50 lookup needed for CCN(CC)c1ccc(C=O)cc1 [DEAB] , thanks.
// result 4.82

###

Biological target: ALDH3A1 (Homo sapiens)
Construct: purchased R & D Systems, Inc, Minneapolis, MN, USA
Sequence (P30838 1-453): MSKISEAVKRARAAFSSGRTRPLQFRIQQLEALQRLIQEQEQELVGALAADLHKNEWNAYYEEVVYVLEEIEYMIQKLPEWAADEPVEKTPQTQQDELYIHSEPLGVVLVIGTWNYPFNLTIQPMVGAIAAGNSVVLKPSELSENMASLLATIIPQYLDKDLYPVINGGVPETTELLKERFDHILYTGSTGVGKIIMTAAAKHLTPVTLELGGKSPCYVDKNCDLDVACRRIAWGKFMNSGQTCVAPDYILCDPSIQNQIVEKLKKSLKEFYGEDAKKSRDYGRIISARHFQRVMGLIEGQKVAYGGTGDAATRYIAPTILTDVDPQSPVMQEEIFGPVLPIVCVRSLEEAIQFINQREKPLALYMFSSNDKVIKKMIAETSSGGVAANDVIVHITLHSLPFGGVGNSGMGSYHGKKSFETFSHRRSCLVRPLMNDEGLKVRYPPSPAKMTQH
Test: ALDH isoform-specific enzyme assay, ALDH3A1 (NADH absorbance)
Assay type: biochemical
Conditions: read-out: IC50s ALDH3A1
quantity.kind: IC50 (µM)
Answers are plain numbers, in µM.

// query Look up IC50: CCN(CC)c1ccc(C=O)cc1
// result 15.1
